target: cloned human 5-HT6 receptor (Homo sapiens); construct: host or cells: HeLa cells, G-418 selection, membrane preparation; test: 5-HT6 Receptor Binding Assay ([3H]-LSD radioligand, SPA); conditions: read-out: 5HT6 % inh @ 1 uM
The label depends only on inhibition at 1 µM: YES if it is at least 90%, NO if it is smaller.

Worked examples follow.
INSERT INTO measurements (molecule_smiles, cat) VALUES
  ('O=S(=O)(c1cccc(N2CCNCC2)n1)N1CCC(c2ccccc2F)CC1', 'YES'),
  ('CN1CCN(c2cccc(C(=O)N(C)Cc3ccccc3C(F)(F)F)n2)CC1', 'NO'),
  ('Cc1ccccc1O[C@@H]1CCN(C(=O)c2cccc(N3CCCN(C)CC3)n2)C1', 'YES'),
  ('CN1CC=C(c2cccc(C(=O)N3CCC(Oc4ccccc4C(F)(F)F)CC3)n2)CC1', 'YES');

Decide: inhibition at 1 µM of Cc1ccccc1O[C@H]1CCN(C(=O)c2cccc(N3CCCNCC3)n2)C1 >= 90%?
YES

Has Cc1ccc(O[C@@H]2CCN(C(=O)c3cccc(N4CCCN(C)CC4)n3)C2)cc1 a recorded inhibition at 1 µM greater than or equal to 90%?
NO

Confirm if inhibition at 1 µM reported for the compound CN1CCN(c2cccc(C(=O)N3CCCC[C@@H]3c3ccc(F)cc3)n2)CC1 is 90% or above.
NO

---

The compounds listed here are annotated with their inhibition at 1 µM.
Molecular target: cloned human 5-HT6 receptor (Homo sapiens)
Construct: host or cells: HeLa cells, G-418 selection, membrane preparation
Experiment: 5-HT6 Receptor Binding Assay ([3H]-LSD radioligand, SPA)
Details: read-out: 5HT6 % inh @ 1 uM
Description: 5-HT6 Receptor Binding Assay Hela cells containing the cloned human 5-HT6 receptor were acquired from Dr. David R. Sibley's laboratory in National Institute of Health (see Sibley, D. R., J. Neurochemistry, 66, 47-56, 1996). […] The radioligand binding assay used [^3H]-lysergic acid diethylamide (LSD). […] The plates were then loaded into counting cassettes and counted in a Wallac MicroBeta Trilux scintillation counter. […]
Please respond with the number in % and leave the unit unwritten.

INSERT INTO results (compound, metric, value_observed) VALUES
  ('Cc1cccc([C@H]2CCCCN2C(=O)c2cccc(N3CCN(C)CC3)n2)c1 [Example 52]', 'inhibition at 1 µM', 96.3),
  ('Cc1ccc(C2CCCCN2C(=O)c2cccc(N3CCCNCC3)n2)cc1 (centres unmarked) [Example 37]', 'inhibition at 1 µM', 71.6),
  ('CN1CCN(c2cccc(C(=O)N(C)Cc3cccc(F)c3)n2)CC1 [Example 70]', 'inhibition at 1 µM', 74.9);

Dear colleague, I am looking for the recorded inhibition at 1 µM of the following compound: Cc1cccc(F)c1C1CCN(C(=O)c2cccc(N3CCN(C)CC3)n2)CC1 [Example 23]
98.3

Sample CN1CCN(c2cccc(C(=O)N3CCCC[C@@H]3c3cccc(F)c3)n2)CC1 [Example 55] — what was its inhibition at 1 µM?
94.2

---

biological target: cloned human 5-HT6 receptor (Homo sapiens, UniProt P50406); construct: host or cells: HeLa cells, G-418 selection, membrane preparation; assay: 5-HT6 Receptor Binding Assay ([3H]-LSD radioligand, SPA); conditions: read-out: 5HT6 % inh @ 1 uM
Sequence (P50406 whole entry): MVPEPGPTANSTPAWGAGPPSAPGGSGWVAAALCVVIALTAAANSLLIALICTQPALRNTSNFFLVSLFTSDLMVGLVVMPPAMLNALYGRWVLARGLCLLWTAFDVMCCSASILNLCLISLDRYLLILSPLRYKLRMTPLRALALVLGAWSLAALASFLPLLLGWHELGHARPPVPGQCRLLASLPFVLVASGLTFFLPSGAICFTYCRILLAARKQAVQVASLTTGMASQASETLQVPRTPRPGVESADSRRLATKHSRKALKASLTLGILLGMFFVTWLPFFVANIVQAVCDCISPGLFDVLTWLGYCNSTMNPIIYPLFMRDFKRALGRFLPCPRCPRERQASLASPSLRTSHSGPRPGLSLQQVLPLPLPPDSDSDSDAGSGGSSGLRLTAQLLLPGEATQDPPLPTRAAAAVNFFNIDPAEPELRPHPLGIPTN
inhibition at 1 µM values by entry
Reply with the number, then its unit.

INSERT INTO results (compound, metric, value_observed) VALUES
  ('Cc1cccc(F)c1C1CCN(C(=O)c2cccc(C3CCN(C)C3)n2)CC1 (stereo not drawn)', 'inhibition at 1 µM', '104%'),
  ('Cc1ccccc1[C@@H]1CCCCN1C(=O)c1cccc(N2CCN(C)CC2)n1', 'inhibition at 1 µM', '77.4%'),
  ('CN1CCC(c2cccc(C(=O)N3CCC(c4ccc(F)cc4F)CC3)n2)C1 (stereo not drawn)', 'inhibition at 1 µM', '95.4%'),
  ('Cc1cccc(OC2CCN(C(=O)c3cccc(C4CCN(C)C4)n3)CC2)c1 (stereo not drawn)', 'inhibition at 1 µM', '96.4%'),
  ('Cc1cccc(O[C@H]2CCCN(C(=O)c3cccc(N4CCN(C)CC4)n3)C2)c1', 'inhibition at 1 µM', '99%');

Which measured inhibition at 1 µM value corresponds to CN1CCN(c2cccc(C(=O)N3CCC[C@H](Oc4cccc(Cl)c4)C3)n2)CC1 ?
99.5%

Param item = Cc1cccc(F)c1C1CCN(C(=O)c2cccc(C3=CCNC3)n2)CC1 ; retrieve measured inhibition at 1 µM.
98.2%

# credit: patent US20090197859A1
